# Assay comment: Selectivity index, ratio of IC50 for rat L6 cells to IC50 for chloroquine and pyrimethamine-resistant Plasmodium falciparum K1
# Format: toxicity, cell-based
# Conditions used: read-out: Ratio IC50
Measure name: selectivity ratio

Known selectivity ratio results, listed for orientation:
Param item = CN(C)C12CCNC(C(c3ccc(Cl)cc3)C1)C(c1ccc(Cl)cc1)C2 (configuration not stated) ; retrieve measured selectivity ratio. 21.3

Param item = c1ccc(C2CC3(N4CCCCC4)CCN(CCN4CCCC4)C2C(c2ccccc2)C3)cc1 (racemic) ; retrieve measured selectivity ratio. 1690

Param item = CN1CCC2(N3CCCC3)CC(c3ccc(Cl)cc3)C1C(c1ccc(Cl)cc1)C2 (racemic) ; retrieve measured selectivity ratio. 8.44

Param item = CN(C)C12CCN(CCc3ccccc3)C(C(c3ccc(Cl)cc3)C1)C(c1ccc(Cl)cc1)C2 (racemic) ; retrieve measured selectivity ratio. 7.23

Param item = CN(C)C12CCN(CCc3ccccc3)C(C(c3ccccc3)C1)C(c1ccccc1)C2 (racemic) ; retrieve measured selectivity ratio. 38.3

New cases:
Param item = c1ccc(C2CC3(N4CCCC4)CCN(CCN4CCCC4)C2C(c2ccccc2)C3)cc1 (racemic) ; retrieve measured selectivity ratio. 116

Param item = c1ccc(CCN2CCC3(N4CCCC4)CC(c4ccccc4)C2C(c2ccccc2)C3)cc1 (racemic) ; retrieve measured selectivity ratio. 3.84

###

# Assay comment: Selectivity index, ratio of IC50 for rat L6 cells to IC50 for Trypanosoma brucei rhodesiense STIB 900
# Type: toxicity, cell-based
# Conditions used: read-out: Ratio IC50
Each item that follows carries a reported selectivity ratio.
Write the value as a bare number.

Known selectivity ratio results, listed for orientation:
Param item = c1ccc(C2CC3(N4CCCC4)CCN(CCN4CCCC4)C2C(c2ccccc2)C3)cc1 (racemic) ; retrieve measured selectivity ratio. 17.2

Param item = c1ccc(CCN2CCC3(N4CCCC4)CC(c4ccccc4)C2C(c2ccccc2)C3)cc1 (racemic) ; retrieve measured selectivity ratio. 3.97

Param item = c1ccc(CN2CCC3(N4CCCC4)CC(c4ccccc4)C2C(c2ccccc2)C3)cc1 (racemic) ; retrieve measured selectivity ratio. 5.17

Param item = c1ccc(CCN2CCC3(N4CCCCC4)CC(c4ccccc4)C2C(c2ccccc2)C3)cc1 (racemic) ; retrieve measured selectivity ratio. 7

Param item = CN(C)C12CCN(CCc3ccccc3)C(C(c3ccccc3)C1)C(c1ccccc1)C2 (racemic) ; retrieve measured selectivity ratio. 8.07

New cases:
Param item = Clc1ccc(C2CC3(N4CCCCC4)CCNC2C(c2ccc(Cl)cc2)C3)cc1 (centres undefined) ; retrieve measured selectivity ratio. 125

Param item = CN1CCC2(N3CCCC3)CC(c3ccccc3)C1C(c1ccccc1)C2 (racemic) ; retrieve measured selectivity ratio. 49.5

Param item = CN1CCC2(N(C)C)CC(c3ccccc3)C1C(c1ccccc1)C2 (racemic) ; retrieve measured selectivity ratio. 61.9

Param item = Clc1ccc(C2CC3(N4CCCC4)CCNC2C(c2ccc(Cl)cc2)C3)cc1 (centres undefined) ; retrieve measured selectivity ratio. 152

###

Each item that follows carries a reported pIC50.
# Tested on: L6
# Assay comment: Cytotoxicity against rat L6 cells
# Assay type: cell-based
Here pIC50 is given on a logarithmic scale as minus log10 of the concentration in mol/L.

Known pIC50 results, listed for orientation:
Param item = CN1CCC2(N(C)C)CC(c3ccccc3)C1C(c1ccccc1)C2 (racemic) ; retrieve measured pIC50. 3.96

Param item = CN(C)C12CCN(CCN3CCCC3)C(C(c3ccccc3)C1)C(c1ccccc1)C2 (racemic) ; retrieve measured pIC50. 4.09

Param item = c1ccc(C2CC3(N4CCCCC4)CCN(CCN4CCCC4)C2C(c2ccccc2)C3)cc1 (racemic) ; retrieve measured pIC50. 3.81

Param item = CN(C)C12CCN(CCc3ccccc3)C(C(c3ccccc3)C1)C(c1ccccc1)C2 (racemic) ; retrieve measured pIC50. 5.34

Param item = CN1CCC2(N3CCCC3)CC(c3ccc(Cl)cc3)C1C(c1ccc(Cl)cc1)C2 (racemic) ; retrieve measured pIC50. 5.13

New cases:
Param item = CN(C)C12CCN(CCc3ccccc3)C(C(c3ccc(Cl)cc3)C1)C(c1ccc(Cl)cc1)C2 (racemic) ; retrieve measured pIC50. 5.47

###

Each item that follows carries a reported log10 IC50.
# System: L6
# Assay comment: Cytotoxicity against rat L6 cells
# Assay type: cell-based
Hello, just confirming the data are log10 of IC50 with units of µM.

Known log10 IC50 results, listed for orientation:
Param item = c1ccc(CCN2CCC3(N4CCCC4)CC(c4ccccc4)C2C(c2ccccc2)C3)cc1 (racemic) ; retrieve measured log10 IC50. 0.57

Param item = c1ccc(C2CC3(N4CCCC4)CCN(CCN4CCCC4)C2C(c2ccccc2)C3)cc1 (racemic) ; retrieve measured log10 IC50. 1.76

Param item = c1ccc(CN2CCC3(N4CCCC4)CC(c4ccccc4)C2C(c2ccccc2)C3)cc1 (racemic) ; retrieve measured log10 IC50. 0.67

Param item = Clc1ccc(C2CC3(N4CCCC4)CCN(CCc4ccccc4)C2C(c2ccc(Cl)cc2)C3)cc1 (racemic) ; retrieve measured log10 IC50. 0.63

Param item = CN1CCC2(N3CCCC3)CC(c3ccccc3)C1C(c1ccccc1)C2 (racemic) ; retrieve measured log10 IC50. 1.96

Param item = CN(C)C12CCN(Cc3ccccc3)C(C(c3ccccc3)C1)C(c1ccccc1)C2 (racemic) ; retrieve measured log10 IC50. 0.87

Param item = Clc1ccc(C2CC3(N4CCCCC4)CCN(CCc4ccccc4)C2C(c2ccc(Cl)cc2)C3)cc1 (racemic) ; retrieve measured log10 IC50. 0.90

New cases:
Param item = c1ccc(CCN2CCC3(N4CCCCC4)CC(c4ccccc4)C2C(c2ccccc2)C3)cc1 (racemic) ; retrieve measured log10 IC50. 0.92

###

# Assay comment: Selectivity index, ratio of IC50 for rat L6 cells to IC50 for Trypanosoma brucei rhodesiense STIB 900
# Type: toxicity, cell-based
# Conditions used: read-out: Ratio IC50
Each item that follows carries a reported selectivity ratio.
Write the value as a bare number.

Known selectivity ratio results, listed for orientation:
Param item = Clc1ccc(C2CC3(N4CCCC4)CCN(CCc4ccccc4)C2C(c2ccc(Cl)cc2)C3)cc1 (racemic) ; retrieve measured selectivity ratio. 3.7

Param item = CN(C)C12CCNC(C(c3ccc(Cl)cc3)C1)C(c1ccc(Cl)cc1)C2 (stereo unspecified) ; retrieve measured selectivity ratio. 143

Param item = CN(C)C12CCN(CCc3ccccc3)C(C(c3ccc(Cl)cc3)C1)C(c1ccc(Cl)cc1)C2 (racemic) ; retrieve measured selectivity ratio. 3.66

Param item = CN(C)C12CCN(Cc3ccccc3)C(C(c3ccccc3)C1)C(c1ccccc1)C2 (racemic) ; retrieve measured selectivity ratio. 5.2

Param item = Clc1ccc(C2CC3(N4CCCCC4)CCN(CCc4ccccc4)C2C(c2ccc(Cl)cc2)C3)cc1 (racemic) ; retrieve measured selectivity ratio. 4.24

Continue with the compound presented below.
Param item = c1ccc(C2CC3(N4CCCCC4)CCN(CCN4CCCC4)C2C(c2ccccc2)C3)cc1 (racemic) ; retrieve measured selectivity ratio. 6.09

###

# Assay comment: Selectivity index, ratio of IC50 for rat L6 cells to IC50 for chloroquine and pyrimethamine-resistant Plasmodium falciparum K1
# Format: toxicity, cell-based
# Conditions used: read-out: Ratio IC50
Measure name: selectivity ratio
Write the value as a bare number.

Known selectivity ratio results, listed for orientation:
Param item = Clc1ccc(C2CC3(N4CCCC4)CCNC2C(c2ccc(Cl)cc2)C3)cc1 (stereo not given) ; retrieve measured selectivity ratio. 40.2

Param item = Clc1ccc(C2CC3(N4CCCCC4)CCNC2C(c2ccc(Cl)cc2)C3)cc1 (stereo not given) ; retrieve measured selectivity ratio. 17.6

Param item = CN(C)C12CCN(Cc3ccccc3)C(C(c3ccccc3)C1)C(c1ccccc1)C2 (racemic) ; retrieve measured selectivity ratio. 12.2

New cases:
Param item = CN1CCC2(N3CCCC3)CC(c3ccccc3)C1C(c1ccccc1)C2 (racemic) ; retrieve measured selectivity ratio. 53.5

Param item = Clc1ccc(C2CC3(N4CCCCC4)CCN(CCc4ccccc4)C2C(c2ccc(Cl)cc2)C3)cc1 (racemic) ; retrieve measured selectivity ratio. 10.8
